- Tested target: Pin1 (Homo sapiens, UniProt Q13526)
- Construct: The catalytic domain of Pin1 (2 μM) in […] and 75 mM NaCl (pH 7.5) was incubated; made in house
- Sequence (Q13526 52-163 limits assumed): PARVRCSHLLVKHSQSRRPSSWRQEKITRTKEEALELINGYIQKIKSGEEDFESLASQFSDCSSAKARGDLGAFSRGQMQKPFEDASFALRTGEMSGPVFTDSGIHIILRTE
- Measurement protocol: Intact protein MS labeling of Pin1
- Format: binding
- Condition label: 2 μM Pin1, 2 μM compound, pH 7.5, 1 h, 25 °C
Assay endpoint: labeling of Pin1 (%)

Reference set, count: 2
Molecule: CC(C)(C)CN(C(=O)COS(=O)(=O)NCc1ccccc1)C1CCS(=O)(=O)C1 (centres unmarked)
Data value: 56

Molecule: CNS(=O)(=O)OCC(=O)N(CC(C)(C)C)C1CCS(=O)(=O)C1 (centres unmarked)
Data value: 16

P: CC(C)(C)CN(C(=O)CCl)C1CCS(=O)(=O)C1 (centres unmarked) [sulfopin, reference compound]
Q: CC(C)(C)CN(C(=O)COS(C)(=O)=O)C1CCS(=O)(=O)C1 (centres unmarked)
Inquiry: Hi! Which is lower in terms of labeling of Pin1, the first one P or the second one Q ? Label of pick, please.
Reply text: Q
(Q: 18%, P: 59%)
